Tested on: Mycobacterium tuberculosis
experimentDescription: Antitubercular activity against multidrug-resistant Mycobacterium tuberculosis UAlP163 after 7 days by autoluminescent assay
Format: functional
conditionSet: UAlP163, 168 h
quantity: MIC

INSERT INTO assay_data (substancesmiles, quantity, result) VALUES
  ('COc1ccn2nc(C)c(C(=O)NCc3ccc(N4CCC(c5ccc(OC(F)(F)F)cc5)CC4)cc3)c2c1', 'MIC', '0.0111 µM'),
  ('Cc1ccn2nc(C)c(C(=O)NCc3ccc(N4CCC(c5ccc(OC(F)(F)F)cc5)CC4)cc3)c2c1', 'MIC', '< 0.383 µM'),
  ('CCc1nn2ccc(Cl)cc2c1C(=O)NCc1ccc(N2CCC(c3ccc(OC(F)(F)F)cc3)CC2)cc1', 'MIC', '< 0.0359 µM'),
  ('Cc1nn2ccc(Cl)cc2c1C(=O)NCc1ccc(N2CCC(c3ccc(OC(F)(F)F)cc3)CC2)cc1', 'MIC', '< 0.184 µM');

---

Test system: Mycobacterium tuberculosis
experimentDescription: Antitubercular activity against multidrug-resistant Mycobacterium tuberculosis UAl9804 after 7 days by autoluminescent assay
Format: functional
conditionSet: UAl9804, 168 h
In this section, each of the molecules is paired with its reported MIC.
quantity: MIC

INSERT INTO measurements (substancesmiles, quantity, result) VALUES
  ('CCc1nn2ccc(Cl)cc2c1C(=O)NCc1ccc(N2CCC(c3ccc(OC(F)(F)F)cc3)CC2)cc1', 'MIC', '< 0.0359 µM'),
  ('Cc1ccn2nc(C)c(C(=O)NCc3ccc(N4CCC(c5ccc(OC(F)(F)F)cc5)CC4)cc3)c2c1', 'MIC', '< 0.383 µM'),
  ('COc1ccn2nc(C)c(C(=O)NCc3ccc(N4CCC(c5ccc(OC(F)(F)F)cc5)CC4)cc3)c2c1', 'MIC', '< 0.0111 µM'),
  ('Cc1nn2ccc(Cl)cc2c1C(=O)NCc1ccc(N2CCC(c3ccc(OC(F)(F)F)cc3)CC2)cc1', 'MIC', '< 0.184 µM');

---

Test system: Mycobacterium tuberculosis
experimentDescription: Antitubercular activity against multidrug-resistant Mycobacterium tuberculosis UAl4768 after 7 days by autoluminescent assay
Format: functional
conditionSet: UAl4768, 168 h
In this section, each of the molecules is paired with its reported MIC.
quantity: MIC (µM)

INSERT INTO results (substancesmiles, systemundertest, quantity, inequalityoperator, quantitativeresult) VALUES
  ('Cc1nn2ccc(Cl)cc2c1C(=O)NCc1ccc(N2CCC(c3ccc(OC(F)(F)F)cc3)CC2)cc1', 'Mycobacterium tuberculosis', 'MIC', '<', 0.184),
  ('Cc1ccn2nc(C)c(C(=O)NCc3ccc(N4CCC(c5ccc(OC(F)(F)F)cc5)CC4)cc3)c2c1', 'Mycobacterium tuberculosis', 'MIC', '<', 0.383),
  ('COc1ccn2nc(C)c(C(=O)NCc3ccc(N4CCC(c5ccc(OC(F)(F)F)cc5)CC4)cc3)c2c1', 'Mycobacterium tuberculosis', 'MIC', '=', 0.0111),
  ('CCc1nn2ccc(Cl)cc2c1C(=O)NCc1ccc(N2CCC(c3ccc(OC(F)(F)F)cc3)CC2)cc1', 'Mycobacterium tuberculosis', 'MIC', '=', 0.0359);

---

Test system: Mycobacterium tuberculosis
experimentDescription: Antitubercular activity against multidrug-resistant Mycobacterium tuberculosis UAlP7 after 7 days by autoluminescent assay
Format: functional
conditionSet: UAlP7, 168 h
In this section, each of the compounds is paired with its reported MIC.
quantity: MIC (µM)

INSERT INTO results (substancesmiles, quantity, unitstring, inequalityoperator, quantitativeresult) VALUES
  ('COc1ccn2nc(C)c(C(=O)NCc3ccc(N4CCC(c5ccc(OC(F)(F)F)cc5)CC4)cc3)c2c1', 'MIC', 'µM', '=', 0.0111),
  ('Cc1nn2ccc(Cl)cc2c1C(=O)NCc1ccc(N2CCC(c3ccc(OC(F)(F)F)cc3)CC2)cc1', 'MIC', 'µM', '<', 0.184),
  ('Cc1ccn2nc(C)c(C(=O)NCc3ccc(N4CCC(c5ccc(OC(F)(F)F)cc5)CC4)cc3)c2c1', 'MIC', 'µM', '<', 0.383),
  ('CCc1nn2ccc(Cl)cc2c1C(=O)NCc1ccc(N2CCC(c3ccc(OC(F)(F)F)cc3)CC2)cc1', 'MIC', 'µM', '=', 0.0718);
